# Condition parameters: in ethyl acetate, 303.15 K
Quantity: solubility (mole fraction)
Answer as a number with no unit attached.

QUERY: Endpoint output: solubility (mole fraction) of C[C@@H]1CC[C@H]2[C@@H](C)C(=O)O[C@@H]3O[C@@]4(C)CC[C@@H]1[C@]32OO4 . Value?
RESULT: 0.0205

---

# Condition parameters: in acetone, 283.15 K
Quantity: solubility (mole fraction)
Would you mind answering with just the numeric figure?

QUERY: Look up solubility (mole fraction): C[C@@H]1CC[C@H]2[C@@H](C)C(=O)O[C@@H]3O[C@@]4(C)CC[C@@H]1[C@]32OO4
RESULT: 0.00388

---

# Condition parameters: in toluene, 303.15 K
Quantity: solubility (mole fraction)

QUERY: Suppose we examine the molecule C[C@@H]1CC[C@H]2[C@@H](C)C(=O)O[C@@H]3O[C@@]4(C)CC[C@@H]1[C@]32OO4 ; what solubility (mole fraction) value has been reported?
RESULT: 0.0711

---

# Condition parameters: in chloroform, 293.15 K
Quantity: solubility (mole fraction)
Number, no unit, nothing else.

QUERY: May I ask what solubility (mole fraction) has been recorded for C[C@@H]1CC[C@H]2[C@@H](C)C(=O)O[C@@H]3O[C@@]4(C)CC[C@@H]1[C@]32OO4 ?
RESULT: 0.0795

---

# Condition parameters: in acetonitrile, 303.15 K
Quantity: solubility (mole fraction)
Please respond with just the number, no unit label.

QUERY: # get_value(readout='solubility (mole fraction)', item= C[C@@H]1CC[C@H]2[C@@H](C)C(=O)O[C@@H]3O[C@@]4(C)CC[C@@H]1[C@]32OO4 )
RESULT: 0.000723

---

# Condition parameters: in methanol, 323.15 K
Quantity: solubility (mole fraction)
Reply briefly: the number, and no unit.

QUERY: Give the measured solubility (mole fraction) of C[C@@H]1CC[C@H]2[C@@H](C)C(=O)O[C@@H]3O[C@@]4(C)CC[C@@H]1[C@]32OO4 .
RESULT: 0.00622

---

# Condition parameters: in acetone, 308.15 K
Quantity: solubility (mole fraction)
Respond using a number only.

QUERY: What does the record list as solubility (mole fraction) for C[C@@H]1CC[C@H]2[C@@H](C)C(=O)O[C@@H]3O[C@@]4(C)CC[C@@H]1[C@]32OO4 ?
RESULT: 0.0145

---

# Condition parameters: in chloroform, 303.15 K
Quantity: solubility (mole fraction)
API note: the answer field is a bare number with no unit suffix.

QUERY: Bench note: what solubility (mole fraction) did C[C@@H]1CC[C@H]2[C@@H](C)C(=O)O[C@@H]3O[C@@]4(C)CC[C@@H]1[C@]32OO4 show?
RESULT: 0.127

---

# Condition parameters: in cyclohexane, 288.15 K
Quantity: solubility (mole fraction)
Lab note: write the figure by itself, no unit.

QUERY: Any idea what solubility (mole fraction) was measured for C[C@@H]1CC[C@H]2[C@@H](C)C(=O)O[C@@H]3O[C@@]4(C)CC[C@@H]1[C@]32OO4 ?
RESULT: 0.000585

---

# Condition parameters: in methanol, 318.15 K
Quantity: solubility (mole fraction)

QUERY: Given C[C@@H]1CC[C@H]2[C@@H](C)C(=O)O[C@@H]3O[C@@]4(C)CC[C@@H]1[C@]32OO4 , state its recorded solubility (mole fraction).
RESULT: 0.00477
